- targetOrSystem: T1, mouse Claudin 3 (mouse, UniProt Q9Z0G9 1-219)
- T1 construct: whole, on cells; also called mCLDN3; mCLN3
- T1 sequence (looked up): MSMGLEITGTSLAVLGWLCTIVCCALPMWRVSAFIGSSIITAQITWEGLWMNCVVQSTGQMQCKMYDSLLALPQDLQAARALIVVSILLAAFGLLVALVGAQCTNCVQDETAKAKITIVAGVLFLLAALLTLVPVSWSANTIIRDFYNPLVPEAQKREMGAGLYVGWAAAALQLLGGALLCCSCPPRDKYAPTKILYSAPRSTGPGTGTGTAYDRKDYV
- methodNotes: flow cytometry, mCLDN3/Ba/F3 cells, 2 ug/mL antibody
- Procedure: A monoclonal antibody was added to the respective forced expression cells, and then incubated at 4° C. for 30 minutes. […] The amount of antibodies bound per cell was measured using FACSCalibur, and the X geometric mean value, which is the geometric mean of the cell fluorescence intensity, was calculated using the accessory CellQuest Pro analysis software of FACSCalibur. […]
endpointLabel: X geometric mean

INSERT INTO results (binder, endpointlabel, number) VALUES
  ('CDN04 (antibody, mouse IgG1, kappa, V domains shown, mouse monoclonal, IgG1/IgK; also called CDN4) VH: EVQLQQSGPELVKPGASMKISCKASGYSFTGYTMNWMKQGHGKNLEWIGLINPYNGGTSYNQKFKDKATLTLDKSSSSAYMELLSLTSEDSAVYYCARGSYGSSYFDYWGQGTTLTVSS VL: DIVMSQSPSSLAVSVGEKVTMSCKSSQSLLYGSNQKNYLAWYQQKPGQSPKLLIYWASTRESGVPDRFTGSGSGTDFTLTISSVKAEDLAVYYCQQYYNFPYTFGGGTKLEIKR', 'X geometric mean', 16),
  ('CDN35 (antibody, V domains shown, mouse monoclonal, IgG2a/IgK) VH: EVQLQQSGPELVKPGASVKMSCKASGYTFTDYYMNWVKQSHGKSLEWIGRVNPSNGGTSYNQKFKGKATLTVDKSLSTAYMQLNSLTSEDSAVYYCARGLAYYSNSFTYWGQGTLVTVSA VL: KIVLTQSPASLAVSLRQRATISCRASESVDSYGNSFMHWYQQKPGQPPKLLIYRASNLESGVPARFSGSGSRTDFTLTIDPVEADDAATYYCQQNNEDPWTFGGGTKLEIKR', 'X geometric mean', 1310),
  ('CDN16 (antibody, mouse IgG2b, kappa, V domains shown, mouse monoclonal, IgG2b/IgK) VH: EVQLQQSGPELVKPGASVKMSCKASGYTFTDYYMNWVKQSHGKSLEWIGRVNPSNGGTSYNQKFKGKATLTVDKSLSTAYMQLNSLTSEDSAVYYCARGLAYYSNSFVYWGQGTLVTVSA VL: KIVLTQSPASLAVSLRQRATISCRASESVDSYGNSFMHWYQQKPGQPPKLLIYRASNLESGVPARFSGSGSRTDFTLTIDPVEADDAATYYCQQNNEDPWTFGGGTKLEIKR', 'X geometric mean', 1270),
  ('CDN38 (antibody, V domains shown) VH: EVQLQQSGPELVKPGASVKMSCKASGYSFTGYFMNWVKQSHGKSLEWIGRINPYNGDTFYNQKFKGKATLTVDKSSSTAHMELRSLTSEDSALYYCARSGNYVMDYWGQGTSVTVSS VL: DIVLTQSPASLAVSLGQSVTISCRASESVEYYGTSLMQWYQQKPGQPPKLLIYGASNVESGVPARFSGSGSGTDFSLNIHPVEEDDIAMYFCQQSRKVPWTFGGGTKLEIKR', 'X geometric mean', 115),
  ('CDN27 (antibody, V domains shown, mouse monoclonal, IgG2a/IgK) VH: EVQLQQSGPELVKPGASVKISCKASGYSFTGYFMNWVKQSHGKSLEWIGRINPYNGDTFYNQKFKGKATLTVDKSSSTAHMELRSLTSEDSAVYYCARSGDWYFDVWGAGTTVTVSS VL: DIVLTQSPASLAVSLGQRATISCRASKSVSTSSYSYMHWYQQKPGQPPKLLIKFASYLESGVPARFSGSGSGTDFTLNIHPVEEEDAATYYCQHSREFPRTFGGGTKLEIKR', 'X geometric mean', 50);

Measured values drawn from patent US20100111852A1 for this set.
